# TARGET: Muscarinic acetylcholine receptor M5 (Homo sapiens) (UniProt P08912)
# Sequence (P08912 whole entry): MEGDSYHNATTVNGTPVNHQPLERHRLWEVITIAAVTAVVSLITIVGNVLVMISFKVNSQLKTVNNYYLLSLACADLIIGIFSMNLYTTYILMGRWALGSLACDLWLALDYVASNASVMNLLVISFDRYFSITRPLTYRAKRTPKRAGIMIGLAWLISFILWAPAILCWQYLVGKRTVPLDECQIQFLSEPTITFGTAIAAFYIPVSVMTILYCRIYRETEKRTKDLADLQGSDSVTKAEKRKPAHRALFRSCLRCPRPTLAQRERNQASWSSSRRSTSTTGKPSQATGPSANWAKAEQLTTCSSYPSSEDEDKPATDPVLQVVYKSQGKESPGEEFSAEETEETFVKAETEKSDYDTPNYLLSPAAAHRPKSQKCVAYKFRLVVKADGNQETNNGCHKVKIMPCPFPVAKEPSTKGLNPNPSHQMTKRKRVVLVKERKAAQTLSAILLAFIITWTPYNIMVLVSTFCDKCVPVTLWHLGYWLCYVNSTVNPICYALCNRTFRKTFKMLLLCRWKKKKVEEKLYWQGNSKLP
# EXPERIMENT: Activation of human muscarinic M5 receptor expressed in CHO cells coexpressing Gq protein assessed as potentiation of acetylcholine-induced intracellular Ca2+ mobilization at 30 uM relative to acetylcholine
# Format: functional, cell-based

{"QUERY SMILES": "O=C1C(=O)N(Cc2ccc(Br)cc2)c2c(F)cccc21", "UNIT OF MEASURE": "%", "%max": 51.7}
{"QUERY SMILES": "O=C1C(=O)N(Cc2ccccc2F)c2ccccc21", "UNIT OF MEASURE": "%", "%max": 24.5}
{"QUERY SMILES": "O=C1C(=O)N(Cc2ccc(OC(F)(F)F)cc2)c2ccc(OC(F)(F)F)cc21", "UNIT OF MEASURE": "%", "%max": 58.9}
{"QUERY SMILES": "COc1cccc(CN2C(=O)C(=O)c3cc(C)ccc32)c1", "UNIT OF MEASURE": "%", "%max": 29.6}
{"QUERY SMILES": "O=C1C(=O)N(Cc2c(F)cccc2F)c2ccccc21", "UNIT OF MEASURE": "%", "%max": 17.4}
{"QUERY SMILES": "O=C1C(=O)N(Cc2ccc(Br)cc2)c2ccc(Cl)cc21", "UNIT OF MEASURE": "%", "%max": 32}
